Origin of the recorded values: patent US10570117B2

Reported values of melting point for individual entries

COc1cc(OCc2ccc(Cl)cc2F)ccc1-c1[nH]c(-c2ccc(F)nc2)nc1Cl [Example 286]
163 to 166 °C
COc1cc(OCc2ccc(C(F)(F)F)nc2)ccc1-c1[nH]c(-c2ccc(F)nc2)nc1C(F)(F)F [Example 412]
222 to 224 °C
COc1cc(OCc2ncccc2C(F)(F)F)ccc1-c1nc(-c2ccc(F)nc2)[nH]c1Cl [Example 214]
143 to 146 °C
COc1cc(-c2[nH]c(C(C)C)nc2Cl)ccc1OCc1ncc(C(F)(F)F)cc1F [Example 386]
188 to 191 °C (dec.)
COc1cc(OCc2ccc(C(F)(F)F)[n+]([O-])c2)ccc1-c1cnc(-c2ccc(F)nc2)[nH]1 [Example 314]
234 to 239 °C

q: Reported melting point, compound COc1cc(OCc2ccc(C(F)(F)F)cn2)ccc1-c1nc(-c2ccc(F)nc2)[nH]c1Br [Example 223] : ____
a: 176 to 178 °C

q: Reported melting point, compound COc1cc(-c2[nH]c(C3CCC3)nc2Cl)ccc1OCc1ccc(C(F)(F)F)cn1 [Example 193] : ____
a: 158 to 170 °C

q: Reported melting point, compound COc1cc(OCc2ncc(C(F)(F)F)cc2Br)ccc1-c1[nH]c(-c2ccc(F)nc2)nc1Cl [Example 263] : ____
a: 166 to 170 °C

q: Reported melting point, compound Fc1ccc(-c2ncc(-c3ccc(OCc4ncc(C(F)(F)F)cc4F)cc3Cl)[nH]2)cn1 [Example 360] : ____
a: 169 to 171 °C

q: Reported melting point, compound COc1cc(OCc2ncc(Cl)cc2F)ccc1-c1cnc(-c2ccc(Cl)nc2)[nH]1 [Example 104] : ____
a: 211 to 218 °C

q: Reported melting point, compound COc1cc(OCc2ncc(C(F)(F)F)cc2F)ccc1-c1[nH]c(C2CCC2)nc1Cl [Example 373] : ____
a: 155 to 157 °C

====

Assay: Solubility in gastric juice or intestinal juice model fluid (precipitation method using DMSO)
Format: physicochemical
Settings: pH 6.8, kinetic from dmso stock, 2nd fluid for Disintegration Test of Japanese Pharmacopoeia (pH: 6.8), room temperature, read-out: Solubility (μg/mL) 2nd fluid
Readout: solubility at 24 h (µg/mL)

COc1cc(OC(C)c2ncc(C(F)(F)F)cc2F)ccc1-c1[nH]c(-c2ccc(F)nc2)nc1Cl (centres unmarked)
2.2

P. COc1cc(OCc2ccc(C(F)(F)F)nc2)ccc1-c1nc(-c2ccc(F)cn2)[nH]c1Cl
Q. COc1cc(OCc2ncc(F)cc2F)ccc1-c1[nH]c(-c2ccc(Cl)nc2)nc1Cl
q: Between P and Q , whose measured solubility at 24 h reads higher? Answer with the label corresponding to your selection.
a: Q
(Q: 5.3 µg/mL, P: 3.4 µg/mL)

====

Reported values of melting point for individual entries

# count of solved cases: 3
COc1cc(OC(C)c2ccc(C(F)(F)F)cn2)ccc1-c1nc(-c2ccc(F)nc2)[nH]c1Cl (stereo not shown)
166 to 169 °C
COCn1cc(-c2ccc(OCc3ccc(C(F)(F)F)cn3)cc2OC)nc1-c1ccc(Cl)nc1
138 to 140 °C
COc1cc(-c2c[nH]c(C3CCC(C(C)(C)C)CC3)n2)ccc1OCc1ccc(C(F)(F)F)cn1 (stereo not shown)
159 to 161 °C

q: Reported melting point, molecule COc1cc(OCc2ccc(C(F)(F)F)nc2)ccc1-c1nc(-c2ccc(F)nc2)[nH]c1Cl : ____
a: 176 to 177 °C
